Catalogue of TGI values
- Tested on: SF-268 CNS
- procedure-summary: NCI tumour cell line growth inhibition, 48 h

Example cases with answers are listed next.
[
  {
    "compound": "O=C(/C=C/c1cccs1)c1ccc([N+](=O)[O-])cc1",
    "assayed-target": "SF-268 CNS",
    "TGI": "> 100 µM"
  },
  {
    "compound": "O=C1NC2=NN=C(c3ccc(Br)cc3)CN2NC12c1ccccc1-c1ccccc12",
    "assayed-target": "SF-268 CNS",
    "TGI": "> 100 µM"
  },
  {
    "compound": "Cc1cc(NS(=O)(=O)c2ccc(NC(=O)c3ccc4nc5ccccc5c(Nc5ccc(S(=O)(=O)Nc6cc(C)on6)cc5)c4c3)cc2)no1",
    "assayed-target": "SF-268 CNS",
    "TGI": "> 50 µM"
  },
  {
    "compound": "O=C(CN(/C=C/C(=O)C(F)(F)F)c1ccccc1)c1ccc(F)cc1",
    "assayed-target": "SF-268 CNS",
    "TGI": "64.5 µM"
  },
  {
    "compound": "O=[N+]([O-])c1ccc(/C=C\\c2ccc3c(c2)OCO3)c([N+](=O)[O-])c1",
    "assayed-target": "SF-268 CNS",
    "TGI": "58.5 µM"
  },
  {
    "compound": "CC1=NN(C(=O)c2ccc(C)cc2)C(=O)C1N=Nc1ccccc1C(=O)O (stereo not drawn)",
    "assayed-target": "SF-268 CNS",
    "TGI": "> 100 µM"
  },
  {
    "compound": "Cc1cc2c(cc1C)[n+](=O)c(C(=O)/C=C/c1ccccc1[N+](=O)[O-])c(C)n2[O-]",
    "assayed-target": "SF-268 CNS",
    "TGI": "74.9 µM"
  },
  {
    "compound": "Cc1c(C)c2ccc(OC(C)C(=O)O)cc2oc1=O (stereo not drawn)",
    "assayed-target": "SF-268 CNS",
    "TGI": "> 100 µM"
  },
  {
    "compound": "OC(c1cc(-c2ccc(Cl)cc2)nc2c(Cl)cccc12)C1CCCCN1 (stereo not drawn)",
    "assayed-target": "SF-268 CNS",
    "TGI": "3.4 µM"
  },
  {
    "compound": "CC1(C)CC(O)CC(C)(C)N1.CC1(C)CC(O)CC(C)(C)N1.CC1(C)CC(O)CC(C)(C)N1.CC1(C)CC(O)CC(C)(C)N1.Cl.[Ti]",
    "assayed-target": "SF-268 CNS",
    "TGI": "> 100 µM"
  }
]

Request: Supply reported TGI belonging to this compound: CC(=O)Oc1ccc(/C=C/C(=O)NCCOC(=O)/C=C/c2ccc(OC(C)=O)c(OC(C)=O)c2)cc1OC(C)=O
Result: > 100 µM

Request: # return recorded TGI for entry COc1cccc2c1[C@H]1OC(=O)NC1CCCCC2 (stereo partly drawn)
Result: > 100 µM

Request: For CC1(C)N=C(N)N=C(N)N1c1ccc(OCCCCNC(=O)Nc2cccc(S(=O)(=O)F)c2)c(Cl)c1 , write its TGI.
Result: > 100 µM

Request: Give TGI for O=S(=O)(Cc1ccccc1)SCc1ccccc1
Result: > 100 µM

Request: Tell me measured TGI for COC(=O)c1ccccc1/C=C1\Cc2ccc3ccccc3c2C1C (stereo not drawn) please.
Result: > 100 µM
